- TARGET_OR_SYSTEM: Schistosoma mansoni thioredoxin glutathione reductase (TGR) (UniProt Q962Y6)
- ASSAY_REMARKS: qHTS Assay for the Inhibitors of Schistosoma Mansoni Peroxiredoxins; also: nearly all actives have a fitted effect of over 60% in size; also: potency is read from the fitted curve at half-maximal effect
- CONDITION_LABEL: purified TGR, DTNB reduction, TNB absorbance 405 nm; series mostly up to 114 µM
The campaign covered roughly 360,000 compounds. About 11,000 (3.1%) were called active. Another 4% or so got no clear call; they are omitted. This excerpt belongs to a sample that is enriched for actives.
PARAMETER_MEASURED: Potency

### Prompt Would you kindly share the measured Potency for CCc1ccc(CCC(=O)Nc2ccc(S(N)(=O)=O)cc2)o1 ?
### Response 50.1 µM (active)

### Prompt Dear colleague, I am looking for the recorded Potency of the following compound: CCn1c(O)c(N=NC(=O)c2cccc(S(=O)(=O)N3CCCCC3)c2)c2ccccc21
### Response inactive

### Prompt State the recorded Potency for this entry: Cn1c(C(=O)N2CCC(C(N)=O)CC2)cc2c(=O)n(C)c3ccccc3c21
### Response inactive

### Prompt What does the record list as Potency for O=C(O)CCCn1c(=O)c2cccn2c2ccc(F)cc21 ?
### Response inactive

### Prompt Name the recorded Potency for Cc1ccccc1-c1nc2cc(NC(=O)c3cccc(OCCC(C)C)c3)ccc2o1 .
### Response inactive

Others:
### Prompt Entry under review: Cc1cc(NC(=O)CCC(=O)N(CC(=O)NC2CCCC2)c2ccc(F)cc2)no1 . Reported Potency?
### Response inactive

### Prompt Any idea what Potency was measured for CCN(CC)c1ccc(NC(=O)CN2CCN(CC(=O)Nc3ccc(Cl)cc3)CC2)cc1 ?
### Response inactive

### Prompt Which value of Potency has been reported for CNC(=O)c1c(NC(NC(=O)c2ccco2)C(=O)c2ccc(Cl)cc2)sc2c1CCCC2 (stereo not drawn) in the records?
### Response 25.1 µM (active)

### Prompt Can you share its Potency? I mean this compound: CCn1c(O)c2ccc(C(=O)N=NC(=O)c3cccnc3)cc2c1O
### Response 100 µM (active)

### Prompt What value of Potency has been reported for the following compound? COC(=O)c1c(NC(=O)c2ccc(Cl)c(Cl)c2)sc2c1CCCC2
### Response inactive

### Prompt Could you share which Potency value was measured for Cc1ccc(NC(=O)Nc2sc3nc4n(c(=O)c3c2C)CCC(C)CC4)c(Cl)c1 (stereo not drawn) ?
### Response inactive

### Prompt Query: Potency; subject: O=C(CCS(=O)(=O)c1ccccc1)Nc1nc2c(s1)CCCC2
### Response 50.1 µM (active)

### Prompt Please look up its Potency: CC(CNC(=O)c1nnc(Cc2cccc(F)c2)o1)c1ccccc1 (stereo not drawn)
### Response inactive
